Parameter kcat: see the listing below.
# TGT: R47E PTP1B (Homo sapiens, UniProt P18031, R47E)
# Sequence (P18031 1-321 R47E): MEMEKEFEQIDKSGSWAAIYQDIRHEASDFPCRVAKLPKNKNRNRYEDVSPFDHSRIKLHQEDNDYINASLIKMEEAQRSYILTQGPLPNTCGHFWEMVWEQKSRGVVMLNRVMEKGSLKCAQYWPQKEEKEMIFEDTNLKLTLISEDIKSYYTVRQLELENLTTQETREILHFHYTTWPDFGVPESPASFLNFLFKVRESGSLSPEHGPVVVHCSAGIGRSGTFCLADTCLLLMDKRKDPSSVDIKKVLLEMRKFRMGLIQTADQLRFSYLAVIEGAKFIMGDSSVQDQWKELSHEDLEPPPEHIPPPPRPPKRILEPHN
# ASSAY SUMMARY: PTP assay, R47E PTP1B
# Assay type: biochemical
# SETUP CONDITIONS: R47E PTP1B aa 1–321; pH 7.4
Quick reminder: number only, in s⁻¹, skip the unit.

Known kcat results, listed for orientation:
> print(dat)
    substance  experimental.readout    u  reading
1   AApYDDIDE                  kcat  s⁻¹       43
2   AApYADDAA                  kcat  s⁻¹       34
3  EEDNAWpYAA                  kcat  s⁻¹       32
4   AApYDDAAA                  kcat  s⁻¹       33

Would you mind telling me what kcat value was observed for "Ac-AWGPLpYDEVQM-NH2" ?
34

Would you mind telling me what kcat value was observed for "AApYIRKRA" ?
34

Would you mind telling me what kcat value was observed for "DPRGIpYDQVAG" ?
35

Would you mind telling me what kcat value was observed for "AApYAADDA" ?
36

Would you mind telling me what kcat value was observed for "AApYAAADD" ?
35

Data credit: paper PMC3954597
